Consider the following pKi values measured on UniProtKB P43166.
Sequence (P43166 whole entry): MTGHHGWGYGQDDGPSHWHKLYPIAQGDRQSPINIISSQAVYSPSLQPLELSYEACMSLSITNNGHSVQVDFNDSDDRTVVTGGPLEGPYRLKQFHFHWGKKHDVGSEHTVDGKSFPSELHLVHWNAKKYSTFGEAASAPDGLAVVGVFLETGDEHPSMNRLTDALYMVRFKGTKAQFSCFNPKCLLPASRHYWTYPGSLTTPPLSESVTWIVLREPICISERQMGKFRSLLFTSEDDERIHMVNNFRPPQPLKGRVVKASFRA
Answers are plain numbers, as −log10 of the molar value.

Illustrative cases are given below, each with its answer.
>>> valuemeasured("NS(=O)(=O)c1ccc(N2CC[C@H](NC(=O)Nc3cc(C(F)(F)F)cc(C(F)(F)F)c3)C2)nc1 [16b]")
8.08
>>> valuemeasured("NS(=O)(=O)c1ccc(NC(=S)N[C@@H]2CCN(c3cccc([N+](=O)[O-])n3)C2)cc1 [37a]")
6.76
>>> valuemeasured("NS(=O)(=O)c1ccc(N2CC[C@@H](NC(=O)Nc3ccc(F)cc3)C2)nc1")
8.18

Quick one: give me pKi for each item below, same order please.
1. NS(=O)(=O)c1ccc(NC(=O)N[C@H]2CCN(c3ccc(C(F)(F)F)cn3)C2)cc1 [45b]
2. COc1ccccc1NC(=O)N[C@H]1CCN(c2ccc(S(N)(=O)=O)cn2)C1 [18b]

RESULT:
[7.89, 7.23]

----------
- targetOrSystem: UniProtKB P00918
Lab note: class by Ki, see range A (below 10 nM), range B (10 nM to below 50 nM), range C (50 nM or more)

Take a look at these entries with their results.
>>> classification("NS(=O)(=O)c1ccc(NC(=O)N[C@@H]2CCN(c3ccccn3)C2)cc1 [41a]")
"range A"
>>> classification("NS(=O)(=O)c1ccc(N2CC[C@@H](NC(=O)Nc3ccc([N+](=O)[O-])cc3)C2)nc1 [19a]")
"range C"
>>> classification("NS(=O)(=O)c1cccc(NC(=S)N[C@@H]2CCN(c3ccccn3)C2)c1 [36a]")
"range A"
>>> classification("NS(=O)(=O)c1ccc(N2CC[C@@H](NC(=O)NS(=O)(=O)c3ccccc3Cl)C2)nc1 [25a]")
"range B"
>>> classification("NS(=O)(=O)c1ccc(N2CC[C@H](NC(=O)Nc3ccc4c(c3)OCCO4)C2)nc1 [15b]")
"range C"
>>> classification("NS(=O)(=O)c1ccc(NC(=O)N[C@@H]2CCN(c3ccc(C(F)(F)F)cn3)C2)cc1 [45a]")
"range B"

QUERY: For this molecule, which bin applies? NS(=O)(=O)c1ccc(N2CC[C@@H](NC(=S)Nc3ccccc3F)C2)nc1 [21a]
RESULT: range B

QUERY: Again, but for NS(=O)(=O)c1ccc(N2CC[C@@H](NC(=O)Nc3c(F)cc(F)cc3Br)C2)nc1 [22a]
RESULT: range C

QUERY: Again, but for COc1ccccc1NC(=O)N[C@@H]1CCN(c2ccc(S(N)(=O)=O)cn2)C1 [18a]
RESULT: range C

QUERY: Again, but for NS(=O)(=O)c1ccc(NC(=O)N[C@H]2CCN(c3ccc(C(F)(F)F)cn3)C2)cc1 [45b]
RESULT: range B

QUERY: Again, but for NS(=O)(=O)c1cccc(NC(=O)N[C@H]2CCN(c3ccc(C(F)(F)F)cn3)C2)c1 [46b]
RESULT: range A

QUERY: Again, but for NS(=O)(=O)c1cccc(NC(=O)N[C@@H]2CCN(c3ccc(C(F)(F)F)cn3)C2)c1 [46a]
RESULT: range A

QUERY: Again, but for NS(=O)(=O)c1cccc(NC(=S)N[C@H]2CCN(c3cccc([N+](=O)[O-])n3)C2)c1 [38b]
RESULT: range A

QUERY: Again, but for NS(=O)(=O)c1cccc(NC(=O)N[C@H]2CCN(c3cccc([N+](=O)[O-])n3)C2)c1 [44b]
RESULT: range A

QUERY: Again, but for NS(=O)(=O)c1ccc(NC(=S)N[C@H]2CCN(c3cccc([N+](=O)[O-])n3)C2)cc1 [37b]
RESULT: range A

QUERY: Again, but for NS(=O)(=O)c1ccc(N2CC[C@@H](NC(=O)Nc3ccc(C(F)(F)F)cc3)C2)nc1 [20a]
RESULT: range C

----------
Consider the following pKi values measured on hCA I (Homo sapiens).
Sequence (P00915 whole entry): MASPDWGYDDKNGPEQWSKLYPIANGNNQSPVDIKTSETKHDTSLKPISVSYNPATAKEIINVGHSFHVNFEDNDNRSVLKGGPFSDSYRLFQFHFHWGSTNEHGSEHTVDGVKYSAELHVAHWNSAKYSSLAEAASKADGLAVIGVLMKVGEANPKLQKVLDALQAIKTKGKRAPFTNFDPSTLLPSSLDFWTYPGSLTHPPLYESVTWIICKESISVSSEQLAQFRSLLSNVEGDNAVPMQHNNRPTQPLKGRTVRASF
Give bare numbers, as −log10 of the molar value.

>>> valuemeasured("NS(=O)(=O)c1ccc(N2CC[C@H](NC(=O)NS(=O)(=O)c3ccccc3Cl)C2)nc1 [25b]")
7.05
>>> valuemeasured("NS(=O)(=O)c1ccc(NC(=O)N[C@@H]2CCN(c3ccccn3)C2)cc1 [41a]")
7.23
>>> valuemeasured("NS(=O)(=O)c1cccc(NC(=S)N[C@@H]2CCN(c3cccc([N+](=O)[O-])n3)C2)c1 [38a]")
7.11

Quick one: give me pKi for each item below, same order please.
1. NS(=O)(=O)c1ccc(N2CC[C@@H](NC(=O)Nc3ccc4c(c3)OCCO4)C2)nc1 [15a]
2. NS(=O)(=O)c1cccc(NC(=O)N[C@@H]2CCN(c3cccc([N+](=O)[O-])n3)C2)c1 [44a]

RESULT:
[7.14, 7.12]

Quick one: give me pKi for each item below, same order please.
1. NS(=O)(=O)c1cccc(NC(=S)N[C@H]2CCN(c3cccc([N+](=O)[O-])n3)C2)c1 [38b]
2. NS(=O)(=O)c1ccc(N2CC[C@@H](NC(=O)NS(=O)(=O)c3ccccc3)C2)nc1 [24a]
3. NS(=O)(=O)c1ccc(N2CC[C@@H](NC(=O)Nc3ccccc3Cl)C2)nc1 [12a]
4. NS(=O)(=O)c1ccc(N2CC[C@@H](NC(=O)Nc3ccc(Cl)c(C(F)(F)F)c3)C2)nc1 [10a]

RESULT:
[8.06, 7.71, 7.08, 6.10]

QUERY: Query (molecule): NS(=O)(=O)c1ccc(N2CCC(NC(=O)Nc3ccc(Cl)c(C(F)(F)F)c3)C2)nc1 (stereo in doubt) [10b] ; field requested: pKi
RESULT: 6.15

----------
- targetOrSystem: hCA XII (Homo sapiens, UniProt O43570)
- Sequence (O43570 25-354): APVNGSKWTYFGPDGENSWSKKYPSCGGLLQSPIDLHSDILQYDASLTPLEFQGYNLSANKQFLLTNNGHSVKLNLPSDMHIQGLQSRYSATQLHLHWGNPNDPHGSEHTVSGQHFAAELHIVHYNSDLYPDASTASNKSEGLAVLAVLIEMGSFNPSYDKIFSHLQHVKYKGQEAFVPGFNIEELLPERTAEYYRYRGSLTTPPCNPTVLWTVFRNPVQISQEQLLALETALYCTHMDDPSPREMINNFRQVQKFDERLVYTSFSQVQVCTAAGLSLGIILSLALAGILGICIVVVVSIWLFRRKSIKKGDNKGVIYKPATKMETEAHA
propertyLabel: Ki (nM)
Give bare numbers, in nM.

Illustrative cases are given below, each with its answer.
>>> valuemeasured("NS(=O)(=O)c1ccc(N2CC[C@@H](NC(=S)Nc3ccc(F)cc3)C2)nc1")
39.5
>>> valuemeasured("NS(=O)(=O)c1cccc(NC(=O)N[C@@H]2CCN(c3cccc([N+](=O)[O-])n3)C2)c1 [44a]")
37.9

Quick one: give me Ki for each item below, same order please.
1. NS(=O)(=O)c1ccc(NC(=S)N[C@H]2CCN(c3cccc([N+](=O)[O-])n3)C2)cc1 [37b]
2. NS(=O)(=O)c1cccc(NC(=O)N[C@H]2CCN(c3cccc([N+](=O)[O-])n3)C2)c1 [44b]
3. NS(=O)(=O)c1ccc(N2CC[C@H](NC(=O)Nc3ccc(Cl)c(Cl)c3)C2)nc1 [14b]

RESULT:
8.8
48.4
44.6

----------
- targetOrSystem: hCA XII (Homo sapiens)
propertyLabel: pKi
One number for each entry, as −log10 of the molar value.

Quick one: give me pKi for each item below, same order please.
1. NS(=O)(=O)c1ccc(N2CC[C@@H](NC(=S)Nc3ccccc3F)C2)nc1 [21a]
2. NS(=O)(=O)c1ccc(N2CC[C@H](NC(=O)Nc3ccc(C(F)(F)F)cc3)C2)nc1 [20b]
3. NS(=O)(=O)c1ccc(NC(=S)N[C@@H]2CCN(c3ccccn3)C2)cc1 [35a]
4. NS(=O)(=O)c1ccc(N2CC[C@H](NC(=S)Nc3ccccc3)C2)nc1

RESULT:
1. 8.08
2. 7.31
3. 8.05
4. 7.63

----------
- targetOrSystem: hCA IV (Homo sapiens, UniProt P22748)
- Sequence (P22748 19-312): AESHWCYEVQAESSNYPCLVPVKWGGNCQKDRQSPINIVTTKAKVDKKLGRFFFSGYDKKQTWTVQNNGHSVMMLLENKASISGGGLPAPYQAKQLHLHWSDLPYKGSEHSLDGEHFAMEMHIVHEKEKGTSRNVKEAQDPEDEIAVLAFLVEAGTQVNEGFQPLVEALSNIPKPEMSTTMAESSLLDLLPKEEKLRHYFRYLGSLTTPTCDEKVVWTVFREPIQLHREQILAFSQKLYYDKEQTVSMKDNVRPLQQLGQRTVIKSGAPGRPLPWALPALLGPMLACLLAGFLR
Ki vs 3 µM: less than gives Criterion met; not less than gives Criterion not met.

Take a look at these entries with their results.
>>> classification("NS(=O)(=O)c1ccc(N2CC[C@H](NC(=S)Nc3ccccc3F)C2)nc1 [21b]")
"Criterion met"
>>> classification("NS(=O)(=O)c1ccc(N2CC[C@@H](NC(=O)Nc3ccc(Cl)c(Cl)c3)C2)nc1 [14a]")
"Criterion not met"
>>> classification("NS(=O)(=O)c1ccc(N2CC[C@@H](NC(=O)NS(=O)(=O)c3ccccc3Cl)C2)nc1 [25a]")
"Criterion met"
>>> classification("NS(=O)(=O)c1ccc(N2CC[C@@H](NC(=S)Nc3ccccc3)C2)nc1")
"Criterion not met"

QUERY: A record lists NS(=O)(=O)c1ccc(NC(=S)N[C@@H]2CCN(c3cccc([N+](=O)[O-])n3)C2)cc1 [37a] . Is its Ki below 3 µM?
RESULT: Criterion met

QUERY: Again, but for `NS(=O)(=O)c1ccc(N2CC[C@H](NC(=O)Nc3ccc(F)cc3)C2)nc1`
RESULT: Criterion not met

QUERY: Again, but for NS(=O)(=O)c1ccc(NC(=O)N[C@@H]2CCN(c3ccccn3)C2)cc1 [41a]
RESULT: Criterion not met

QUERY: Again, but for NS(=O)(=O)c1ccc(N2CC[C@H](NC(=O)Nc3cc(C(F)(F)F)cc(C(F)(F)F)c3)C2)nc1 [16b]
RESULT: Criterion met

QUERY: Again, but for COc1ccccc1NC(=O)N[C@H]1CCN(c2ccc(S(N)(=O)=O)cn2)C1 [18b]
RESULT: Criterion not met

QUERY: Again, but for NS(=O)(=O)c1ccc(NC(=O)N[C@@H]2CCN(c3ccc(C(F)(F)F)cn3)C2)cc1 [45a]
RESULT: Criterion not met

QUERY: Again, but for NS(=O)(=O)c1ccc(N2CC[C@@H](NC(=O)Nc3c(F)cc(F)cc3Br)C2)nc1 [22a]
RESULT: Criterion not met

QUERY: Again, but for NS(=O)(=O)c1cccc(NC(=O)N[C@@H]2CCN(c3cccc([N+](=O)[O-])n3)C2)c1 [44a]
RESULT: Criterion met

QUERY: Again, but for `NS(=O)(=O)c1ccc(N2CC[C@@H](NC(=S)Nc3ccc(F)cc3)C2)nc1`
RESULT: Criterion not met

QUERY: Again, but for NS(=O)(=O)c1ccc(N2CC[C@@H](NC(=O)Nc3ccc(Cl)c(C(F)(F)F)c3)C2)nc1 [10a]
RESULT: Criterion not met

QUERY: Again, but for NS(=O)(=O)c1cccc(NC(=S)N[C@H]2CCN(c3cccc([N+](=O)[O-])n3)C2)c1 [38b]
RESULT: Criterion met

QUERY: Again, but for `NS(=O)(=O)c1ccc(N2CC[C@H](NC(=S)Nc3ccccc3)C2)nc1`
RESULT: Criterion not met

QUERY: Again, but for NS(=O)(=O)c1ccc(N2CC[C@H](NC(=O)NS(=O)(=O)c3ccccc3Cl)C2)nc1 [25b]
RESULT: Criterion met

QUERY: Again, but for NS(=O)(=O)c1ccc(NC(=S)N[C@H]2CCN(c3ccc(C(F)(F)F)cn3)C2)cc1 [39b]
RESULT: Criterion not met

QUERY: Again, but for NS(=O)(=O)c1ccc(NC(=O)N[C@@H]2CCN(c3cccc([N+](=O)[O-])n3)C2)cc1 [43a]
RESULT: Criterion met

QUERY: Again, but for NS(=O)(=O)c1cccc(NC(=O)N[C@H]2CCN(c3cccc([N+](=O)[O-])n3)C2)c1 [44b]
RESULT: Criterion not met

QUERY: Again, but for NS(=O)(=O)c1ccc(N2CC[C@@H](NC(=O)Nc3cc(C(F)(F)F)cc(C(F)(F)F)c3)C2)nc1 [16a]
RESULT: Criterion not met
